Molecular target: human MPO (Homo sapiens, UniProt P05164)
Sequence (P05164 49-745): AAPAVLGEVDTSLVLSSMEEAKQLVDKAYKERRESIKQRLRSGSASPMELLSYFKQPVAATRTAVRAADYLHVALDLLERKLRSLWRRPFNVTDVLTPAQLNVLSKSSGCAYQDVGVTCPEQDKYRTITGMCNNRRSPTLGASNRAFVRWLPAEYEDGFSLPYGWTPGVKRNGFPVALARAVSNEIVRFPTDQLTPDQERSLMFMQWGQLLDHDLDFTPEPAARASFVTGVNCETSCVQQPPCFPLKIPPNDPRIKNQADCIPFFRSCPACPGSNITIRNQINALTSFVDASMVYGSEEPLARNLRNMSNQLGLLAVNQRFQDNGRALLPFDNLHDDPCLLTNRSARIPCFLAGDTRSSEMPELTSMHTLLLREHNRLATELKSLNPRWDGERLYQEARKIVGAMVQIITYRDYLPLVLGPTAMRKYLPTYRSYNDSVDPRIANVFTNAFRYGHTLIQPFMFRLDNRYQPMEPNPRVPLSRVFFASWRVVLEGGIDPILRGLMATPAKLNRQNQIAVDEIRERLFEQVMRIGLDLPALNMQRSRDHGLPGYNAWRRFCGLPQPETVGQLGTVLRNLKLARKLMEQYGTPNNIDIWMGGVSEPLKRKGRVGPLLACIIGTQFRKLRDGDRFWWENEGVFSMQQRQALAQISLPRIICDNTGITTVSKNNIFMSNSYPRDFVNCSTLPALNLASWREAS
Assay: MPO inhibition screen (TMB oxidation, absorbance)
Details: in the presence of tyrosine (final 8 μM); human MPO 2.5 nM; H2O2 100 μM
valueType: IC50 (µM)

>>> quantitativereadout("S=c1[nH]nc(Cc2ccccn2)n1C1CCN(Cc2ccccc2)C1 (stereo not drawn)")
7.2

(P) S=c1[nH]nc(Cc2ccccn2)n1C1CC2C=CC1C2 (stereo not drawn)
(Q) O[C@@H]1CCCC[C@H]1n1c(COc2ccccc2Cl)n[nH]c1=S (relative stereo)
Ask: For P and Q , which recorded IC50 is lower? Output the label that corresponds to your choice.
Result: Q
